The measurements presented in this section are drawn from PubChem BioAssay (NCI).

Measured TGI, listed per entry.
Tested on: NCI-H460 lung
test: NCI tumour cell line growth inhibition, 48 h

Field: example entries. Status: answers known.
# compound, readout-kind, result
records = [
    ("CC(=O)CCCCn1c(=O)c2c(nc(Br)n2C)n(C)c1=O", "TGI", "> 100 µM"),
    ("O=C(c1ccc(O)cc1O)C1C(c2ccc(O)cc2)OC(c2ccc(O)cc2)C1C(=O)c1ccc(O)cc1O (stereo not given)", "TGI", "> 100 µM"),
    ("CCOC1=C2N=C(C(CC)c3ccccc3F)N=C2C(=O)c2ccccc21 (stereo not given)", "TGI", "> 100 µM"),
    ("COc1cc2oc(-c3cccc(C(=O)Nc4ccc(Cl)cc4)c3)cc(=O)c2c(OC)c1OC", "TGI", "> 100 µM"),
]

// switching to the query compound
// TGI lookup, key: "Cn1c(CBr)nc2c1C(=O)c1nc(CBr)[nH]c(=O)c1C2=O"
> 100 µM

###

Test system: K-562 leukemia
test: NCI tumour cell line growth inhibition, 48 h; in the data active = GI50 below about 0.43 µM; inactive = the rest
API: response.call in active, inactive

# compound, class-name
records = [
    ("NC1NC=NC2C1N=CN2C1OC(CO)C2[O][Sn][O]C21 (stereo not drawn)", "inactive"),
]

Assay outcome for COC(=O)NC1C(C)OC(OC2C/C=C(/C)C3C=CC4C(OC5CC(OC6CCC(OC7CC(O)C(OC8CCC(O)C(C)O8)C(C)O7)C(C)O6)C(OC(C)=O)C(C)O5)C(C)CC(C)C4C3(C)/C(O)=C3/C(=O)OC4(CC(C=O)=CC(O)C4/C=C\2C)C3=O)CC1(C)[N+](=O)[O-] (stereo not drawn) : what was it?
active

Assay outcome for "COc1cc(/C=C/C(=O)c2cccc(-n3cc(-c4cc(OC)c(OC)c(OC)c4)[nH]c3=O)c2)cc(OC)c1OC" : what was it?
inactive

###

Measured TGI, listed per entry.
System: OVCAR-5 ovarian
test: NCI tumour cell line growth inhibition, 48 h

Field: example entries. Status: answers known.
# compound, result
rows = [
    ("O=c1[nH]/c(=C/c2ccc3c(c2)OCO3)c(=O)[nH]/c1=C/c1ccc2c(c1)OCO2", "> 10 µM"),
    ("Cc1ccc(NC(=O)CCc2nc(=S)[nH][nH]2)cc1", "> 100 µM"),
    ("CC1=NN(c2nc(N)nc(NS(=O)(=O)c3cc(C)c(Cl)cc3S)n2)C(C)(C)C1", "> 10 µM"),
]

// TGI lookup, key: "[N-]=[N+]=Nc1ccccc1-c1ccccc1[N+](=O)[O-]"
> 100 µM

// TGI lookup, key: COc1cc2c(c(OC)c1OC)-c1ccc(NN(C(=O)c3ccccc3)C(=O)c3ccccc3)c(=O)cc1[C@@H](NC(C)=O)CC2 (tested in a mixture with another compound)
> 100 µM

###

Tested on: SK-OV-3 ovarian
test: NCI tumour cell line growth inhibition, 48 h
readout-kind: TGI

Field: example entries. Status: answers known.
# compound, TGI
records = [
    ("CN(C)CCN(C)P12(Oc3ccccc3O1)Oc1c(Cl)c(Cl)c(Cl)c(Cl)c1O2", "> 100 µM"),
    ("C/C(=C/C(=O)Nc1ccccc1)Nc1onc(C)c1C", "> 100 µM"),
]

// TGI lookup, key: COc1ccc(C(O)c2cc3c(N)c(C(=O)Nc4ccc(Cl)cc4)sc3nc2C)cc1 (stereo not given)
15.5 µM

// TGI lookup, key: "CCOCC1(COCC)CCC(c2[nH]ncc2CN(C)CCNC)CC1"
> 100 µM

// TGI lookup, key: "CCN(CC)CCCNc1c2c(Cl)cc(Cl)cc2nc2nc(=O)[nH]c(C)c12"
58 µM

// TGI lookup, key: "COc1ccc(/C=c2\c(=O)[nH]c3nc4ccccc4c(=O)n23)cc1"
> 100 µM

// TGI lookup, key: COc1ccc(C2c3cc4c(cc3OC(NNc3ccccc3)C2C)OCO4)cc1 (stereo not given)
> 100 µM

// TGI lookup, key: "N#C/C(=C\c1ccncc1)c1csc2ccccc12"
> 73.1 µM

// TGI lookup, key: "Clc1ccc(Nc2nnc(CNc3ccc(-c4nnc(Nc5ccc(Cl)cc5)s4)cc3)s2)cc1"
> 100 µM

// TGI lookup, key: "COC(=O)CCSC(=O)Nc1ccc(N=Nc2ccccc2)cc1"
> 100 µM
